Reference for the values: BindingDB's records for doi:10.1016/j.bioorg.2015.11.002

Target: Cholinesterase (Homo sapiens, UniProt P06276)
Sequence (P06276 whole entry): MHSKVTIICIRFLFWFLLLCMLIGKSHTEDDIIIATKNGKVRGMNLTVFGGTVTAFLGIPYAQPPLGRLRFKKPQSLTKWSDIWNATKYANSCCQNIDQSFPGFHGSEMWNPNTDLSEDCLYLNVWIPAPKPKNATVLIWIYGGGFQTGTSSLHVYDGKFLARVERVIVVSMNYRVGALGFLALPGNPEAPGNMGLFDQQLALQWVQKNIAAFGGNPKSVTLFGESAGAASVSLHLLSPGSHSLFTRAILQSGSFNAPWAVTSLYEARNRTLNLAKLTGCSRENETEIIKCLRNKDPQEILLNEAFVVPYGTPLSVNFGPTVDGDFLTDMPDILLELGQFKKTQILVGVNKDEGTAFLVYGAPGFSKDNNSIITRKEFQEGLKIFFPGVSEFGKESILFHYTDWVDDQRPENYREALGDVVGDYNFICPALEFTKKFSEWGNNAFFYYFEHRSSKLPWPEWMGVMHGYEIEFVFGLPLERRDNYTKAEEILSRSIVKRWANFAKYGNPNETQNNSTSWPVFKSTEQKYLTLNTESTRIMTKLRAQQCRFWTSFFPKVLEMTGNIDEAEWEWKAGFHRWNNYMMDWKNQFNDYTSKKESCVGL
Field: label. Allowed values: true (IC50 < 50 µM) or false (IC50 >= 50 µM).

Lookup: Quick check: does CC(=O)N(c1ccc(-c2ccc(N(C(C)=O)S(=O)(=O)c3ccccc3)cc2)cc1)S(=O)(=O)c1ccccc1 have IC50 under 50 µM?
Found: false

---
Lookup: Report whether reported IC50 is lower than 50 µM (strictly) for O=S(=O)(Nc1ccc(-c2ccc(NS(=O)(=O)c3ccccc3)cc2)cc1)c1ccccc1
Found: false

Lookup: Now the compound CCCCCCCCCCCCCCCCN(c1ccc(-c2ccc(N(CCCCCCCCCCCCCCCC)S(=O)(=O)c3ccccc3)c(C)c2)cc1C)S(=O)(=O)c1ccccc1
Found: true

Lookup: How about this compound: CCCCN(c1ccc(-c2ccc(N(CCCC)S(=O)(=O)c3ccccc3)cc2)cc1)S(=O)(=O)c1ccccc1
Found: false

Lookup: And CCCCCCCCCCCCCCCCN(c1ccc(-c2ccc(N(CCCCCCCCCCCCCCCC)S(=O)(=O)c3ccccc3)cc2)cc1)S(=O)(=O)c1ccccc1 ?
Found: true

Lookup: Please give the result for O=S(=O)(c1ccccc1)N(Cc1ccccc1)c1ccc(-c2ccc(N(Cc3ccccc3)S(=O)(=O)c3ccccc3)cc2)cc1 too.
Found: true

Lookup: Now the compound CCCCN(c1ccc(-c2ccc(N(CCCC)S(=O)(=O)c3ccccc3)c(C)c2)cc1C)S(=O)(=O)c1ccccc1
Found: true

Lookup: One more compound: Cc1cc(-c2ccc(N(Cc3ccccc3)S(=O)(=O)c3ccccc3)c(C)c2)ccc1N(Cc1ccccc1)S(=O)(=O)c1ccccc1
Found: true

###

Test system Acetylcholinesterase (Homo sapiens, UniProt P22303), log10 IC50 listed for each of the molecules.
Could you please treat all values as log10 of IC50 in µM?

Lookup: Entry CCCCCCCN(c1ccc(-c2ccc(N(CCCCCCC)S(=O)(=O)c3ccccc3)cc2)cc1)S(=O)(=O)c1ccccc1 : reported log10 IC50 = ?
Found: 1.77

Lookup: Try this molecule too: O=S(=O)(c1ccccc1)N(Cc1ccccc1)c1ccc(-c2ccc(N(Cc3ccccc3)S(=O)(=O)c3ccccc3)cc2)cc1
Found: 1.79

Lookup: Next: CC(=O)N(c1ccc(-c2ccc(N(C(C)=O)S(=O)(=O)c3ccccc3)cc2)cc1)S(=O)(=O)c1ccccc1
Found: 2.01

Others:
Lookup: If you can, please state the reported log10 IC50 value of CCCCCCCN(c1ccc(-c2ccc(N(CCCCCCC)S(=O)(=O)c3ccccc3)c(C)c2)cc1C)S(=O)(=O)c1ccccc1 .
Found: 1.64

Lookup: Another: CCCCCCCCCCCCCCCCN(c1ccc(-c2ccc(N(CCCCCCCCCCCCCCCC)S(=O)(=O)c3ccccc3)cc2)cc1)S(=O)(=O)c1ccccc1
Found: 0.67

Lookup: Next: CCCCCCCCCCCCCCCCN(c1ccc(-c2ccc(N(CCCCCCCCCCCCCCCC)S(=O)(=O)c3ccccc3)c(C)c2)cc1C)S(=O)(=O)c1ccccc1
Found: 0.39

Lookup: # repeat for CCCCCCN(c1ccc(-c2ccc(N(CCCCCC)S(=O)(=O)c3ccccc3)c(C)c2)cc1C)S(=O)(=O)c1ccccc1
Found: 1.70

Lookup: Also need CC(=O)N(c1ccc(-c2ccc(N(C(C)=O)S(=O)(=O)c3ccccc3)c(C)c2)cc1C)S(=O)(=O)c1ccccc1 , thanks.
Found: 1.98

Lookup: Another molecule to check: CCCCCCN(c1ccc(-c2ccc(N(CCCCCC)S(=O)(=O)c3ccccc3)cc2)cc1)S(=O)(=O)c1ccccc1
Found: 1.90

Lookup: // same read-out, input: CCCCCN(c1ccc(-c2ccc(N(CCCCC)S(=O)(=O)c3ccccc3)cc2)cc1)S(=O)(=O)c1ccccc1
Found: 1.90
